Reference source for all entries: patent US10995052B2

- measured-on: RAR gamma (Homo sapiens)
- Sequence (P13631 178-423 limits assumed): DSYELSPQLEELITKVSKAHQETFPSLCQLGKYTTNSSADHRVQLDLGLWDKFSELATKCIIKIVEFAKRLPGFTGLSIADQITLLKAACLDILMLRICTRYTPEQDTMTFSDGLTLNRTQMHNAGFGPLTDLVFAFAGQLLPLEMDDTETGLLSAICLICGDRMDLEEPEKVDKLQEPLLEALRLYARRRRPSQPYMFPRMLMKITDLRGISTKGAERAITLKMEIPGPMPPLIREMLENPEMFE
- assay-explanation: Transactivation test in HeLa cells (luciferase reporter), apparent Kd by Schild regression
- test-settings: stably transfected HeLa cells, versus reference antagonist, 18 hours incubation, read-out: RAR gamma Kdapp
pKd: −log10 of the molar value.
readout-type: pKd

• CC1(C)CCC(C)(C)c2cc(-c3cc(-c4ccc(C(=O)O)cc4)ccc3CCCO)ccc21 = 8.40
